Biological target: T1, cynomolgus monkey transferrin receptor 1 (cTfR1) (cynomolgus monkey, UniProt H9EXL1 89-760 (rhesus entry))
T1 construct: The ELISA against cTfR1 is not described in the text
T1 sequence (chain, as listed by the source): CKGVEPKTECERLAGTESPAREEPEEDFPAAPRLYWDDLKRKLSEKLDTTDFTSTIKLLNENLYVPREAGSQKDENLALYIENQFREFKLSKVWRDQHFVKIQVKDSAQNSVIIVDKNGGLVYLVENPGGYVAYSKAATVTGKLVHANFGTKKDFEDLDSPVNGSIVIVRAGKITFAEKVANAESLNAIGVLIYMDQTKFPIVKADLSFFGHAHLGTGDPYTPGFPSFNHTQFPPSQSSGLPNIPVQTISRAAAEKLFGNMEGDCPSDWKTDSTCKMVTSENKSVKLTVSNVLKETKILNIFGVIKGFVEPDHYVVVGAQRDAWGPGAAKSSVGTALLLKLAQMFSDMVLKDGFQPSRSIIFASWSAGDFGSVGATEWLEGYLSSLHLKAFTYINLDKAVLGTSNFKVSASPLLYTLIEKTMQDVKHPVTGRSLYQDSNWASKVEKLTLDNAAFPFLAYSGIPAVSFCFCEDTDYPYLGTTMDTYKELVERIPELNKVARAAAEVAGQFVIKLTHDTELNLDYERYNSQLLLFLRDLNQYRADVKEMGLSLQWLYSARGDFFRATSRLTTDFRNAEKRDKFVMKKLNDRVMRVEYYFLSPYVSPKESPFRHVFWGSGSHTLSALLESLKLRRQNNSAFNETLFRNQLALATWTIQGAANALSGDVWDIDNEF
Assay: competition phage ELISA (phage-displayed Fab)
Known pKd of a selection of binders
// scale note: pKd = -log10(conc_M); give the bare number

BINDER	REPORTED_RESULT
Fab0071 (Fab, V domains shown) VH: EVQLVESGGGLVQPGGSLRLSCATSGYTFNSYWMHWVRQAPGKGLEWVAEINPTNGRTNYIEKFKSRITLSVDKSKSTVYLQMNSLRAEDTAVYYCARGTRAYHYWGQGTLVTVSS VL: DIQLTQSPSSLSASVGDRVTITCRASDGLYSNLAWYQQKPGKAPKLLIYDARNLASGVPSRFSGSGSGTDYTLTISSLQPEDFATYYCQHFWGTPLTFGQGTKVEIKR	9.13

Now examine the next entry.
Prompt: What does the data say about its pKd? Entry: Fab0069 (Fab, V domains shown) VH: EVQLVESGGGLVQPGGSLRLSCATSGYTFTSYWVHWVRQAPGKGLEWVAEINPTNGRSNYIEKFKSRITLSVDKSKSTVYLQMNSLRAEDTAVYYCARGTRAYHYWGQGTLVTVSS VL: DIQLTQSPSSLSASVGDRVTITCRASDGLYSNLAWYQQKPGKAPKLLIYDATKLASGVPSRFSGSGSGTDYTLTISSLQPEDFATYYCQHFWGTPLTFGQGTKVEIKR
Completion: 8.89
